Assayed system: human Src enzyme (Homo sapiens, UniProt P12931)
Construct: purchased Carna Biosciences, Inc. 08-173
Sequence (P12931 whole entry): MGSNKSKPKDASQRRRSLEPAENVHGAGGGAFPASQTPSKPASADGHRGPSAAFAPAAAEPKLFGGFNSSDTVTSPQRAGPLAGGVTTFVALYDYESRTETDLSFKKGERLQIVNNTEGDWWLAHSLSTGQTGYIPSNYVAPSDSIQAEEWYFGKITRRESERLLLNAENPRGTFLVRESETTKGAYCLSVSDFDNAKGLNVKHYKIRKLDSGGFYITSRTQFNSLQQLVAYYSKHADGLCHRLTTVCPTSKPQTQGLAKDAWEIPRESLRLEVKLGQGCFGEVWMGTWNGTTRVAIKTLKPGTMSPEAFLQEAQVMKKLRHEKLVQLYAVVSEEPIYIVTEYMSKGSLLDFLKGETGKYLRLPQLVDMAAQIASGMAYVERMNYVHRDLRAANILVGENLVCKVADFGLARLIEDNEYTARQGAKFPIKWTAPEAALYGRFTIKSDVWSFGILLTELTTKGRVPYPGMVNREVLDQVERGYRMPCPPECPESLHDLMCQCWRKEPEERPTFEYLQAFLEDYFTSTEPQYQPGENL
Assay details: Src enzyme inhibitory activity (time-resolved fluorometry, biotinylated peptide phosphorylation)
Format: biochemical
Measurement setup: biotinylated peptide phosphorylation, read-out: SRC_IC50
pIC50: −log10 of the molar value.
Endpoint: pIC50

[[record]]
structure_smiles_string = "Cc1cc2cc(C(=O)c3cnn(-c4cnc(Oc5c(F)cccc5F)cc4C)c3N)[nH]c2cc1N1C(=O)N[C@@H](C(C)C)C1=O"
assayed_system = "human Src enzyme (Homo sapiens, UniProt P12931)"
endpoint = "pIC50"
value_reported = 6.89


a: Cc1cc2cc(C(=O)c3cnn(-c4ccc(Oc5cccc(F)c5F)cc4C)c3N)[nH]c2cc1NS(C)(=O)=O
b: Cc1cc(Oc2ccccc2F)ncc1-n1ncc(C(=O)c2cc3cc(OC(F)F)c(NS(C)(=O)=O)cc3[nH]2)c1N
query: Thinking about recorded pIC50 values, which is higher, a or b ? Indicate your choice by writing its label.
result: a

---

Assayed system: human Yes1 enzyme (Homo sapiens, UniProt P07947)
Construct: made in house
Sequence (P07947 whole entry): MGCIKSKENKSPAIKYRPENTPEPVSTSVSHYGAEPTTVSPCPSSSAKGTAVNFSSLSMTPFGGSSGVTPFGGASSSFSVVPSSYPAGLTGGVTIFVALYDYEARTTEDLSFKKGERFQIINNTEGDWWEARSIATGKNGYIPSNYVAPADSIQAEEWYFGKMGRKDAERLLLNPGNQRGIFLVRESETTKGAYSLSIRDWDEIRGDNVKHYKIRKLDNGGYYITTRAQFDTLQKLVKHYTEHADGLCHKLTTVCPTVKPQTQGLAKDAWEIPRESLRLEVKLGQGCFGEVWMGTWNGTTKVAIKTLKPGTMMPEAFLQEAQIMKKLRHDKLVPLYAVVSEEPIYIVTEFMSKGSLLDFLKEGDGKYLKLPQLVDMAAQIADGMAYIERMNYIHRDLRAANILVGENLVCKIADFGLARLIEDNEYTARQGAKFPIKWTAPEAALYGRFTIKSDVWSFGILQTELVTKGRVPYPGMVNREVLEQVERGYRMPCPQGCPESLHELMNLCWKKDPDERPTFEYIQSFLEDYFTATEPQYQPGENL
Assay details: Yes1 enzyme inhibitory activity (time-resolved fluorometry, biotinylated peptide phosphorylation)
Type: biochemical
Measurement setup: read-out: YES_IC50
Endpoint: IC50 (nM)

Sample answers from the record:
[[record]]
molecule = "Cc1cc(-n2ncc(C(=O)c3cc4cc(OC5CCN(C6CCCC6)CC5)c(Br)cc4[nH]3)c2N)ccc1Oc1ccccc1F"
value_reported = 1.7

[[record]]
molecule = "Cc1cc(Oc2ccccc2F)ccc1-n1ncc(C(=O)c2cc3cc(OCC(F)F)c(NC(=O)OCC4c5ccccc5-c5ccccc54)cc3[nH]2)c1N"
value_reported = 14

[[record]]
molecule = "Cc1cc2cc(C(=O)c3cnn(-c4ccc(Oc5ccccc5F)cc4C)c3N)[nH]c2cc1N1C(=O)NC2(CC2)C1=O"
value_reported = 1.3

[[record]]
molecule = "Cc1cc(Oc2c(F)cccc2F)ncc1-n1ncc(C(=O)c2cc3cc(F)c(-n4c(C)cc(=O)[nH]c4=O)cc3[nH]2)c1N"
value_reported = 1.9

[[record]]
molecule = "Cc1cc(Oc2ccccc2F)ccc1-n1ncc(C(=O)c2cc3cc(OC4CCN(C(C)C)CC4)c(Cl)cc3[nH]2)c1N"
value_reported = 0.87

[[record]]
molecule = "CS(=O)(=O)Nc1cc2[nH]c(C(=O)c3cnn(-c4ccc(Oc5ccccc5F)cc4Cl)c3N)cc2cc1F"
value_reported = 2.2


1: Cc1cc(Oc2ccccc2F)ccc1-n1ncc(C(=O)c2cc3cc(OCC(F)F)c(N4C(=O)OC[C@H]4Cc4ccccc4)cc3[nH]2)c1N
2: Cc1cc(Oc2c(F)cccc2F)ncc1-n1ncc(C(=O)c2cc3cc(OCC(F)F)c(N4C(=O)NC5(CCN(Cc6ccccc6)C5)C4=O)cc3[nH]2)c1N (stereo not shown)
3: Cc1cc(Oc2c(F)cccc2F)ncc1-n1ncc(C(=O)c2cc3cc(OCC(F)F)c(NS(=O)(=O)C4CCOCC4)cc3[nH]2)c1N
4: Cc1cc(Oc2c(F)cccc2F)ncc1-n1ncc(C(=O)c2cc3cc(C4CC4)c(NS(=O)(=O)C4CCOCC4)cc3[nH]2)c1N
query: List the 4 entries from lowest IC50 to highest IC50 value. Write the labels out in the order the request specifies.
result: 2, 3, 4, 1
(2: 1.4 nM, 3: 2.8 nM, 4: 4.8 nM, 1: 9.9 nM)

---

Assayed system: human Src enzyme (Homo sapiens)
Construct: purchased Carna Biosciences, Inc. 08-173
Assay details: Src enzyme inhibitory activity (time-resolved fluorometry, biotinylated peptide phosphorylation)
Format: biochemical
Measurement setup: biotinylated peptide phosphorylation, read-out: SRC_IC50
Endpoint: IC50 (nM)

These recorded examples may help you get a feel for the data.
[[record]]
structure_smiles_string = "Cc1cc(Oc2ccccc2F)ccc1-n1ncc(C(=O)c2cc3cc(F)c(NS(=O)(=O)c4cccc(C#N)c4)cc3[nH]2)c1N"
assayed_system = "human Src enzyme (Homo sapiens)"
value_reported = 430

[[record]]
structure_smiles_string = "Cc1cc(Oc2ccccc2F)ncc1-n1ncc(C(=O)c2cc3cc(OCC(F)F)c(NS(=O)(=O)N4CCOCC4)cc3[nH]2)c1N"
assayed_system = "human Src enzyme (Homo sapiens)"
value_reported = 130

[[record]]
structure_smiles_string = "Cc1cc(Oc2ccccc2)cc(F)c1-n1ncc(C(=O)c2cc3cc(NS(C)(=O)=O)c(Cl)cc3[nH]2)c1N"
assayed_system = "human Src enzyme (Homo sapiens)"
value_reported = 14

[[record]]
structure_smiles_string = "Cc1cc(Oc2ccccc2F)ccc1-n1ncc(C(=O)c2cc3cc(F)c(N4C(=O)N[C@@H](CO)C4=O)cc3[nH]2)c1N"
assayed_system = "human Src enzyme (Homo sapiens)"
value_reported = 13

[[record]]
structure_smiles_string = "Cc1cc(Oc2cc(F)ccc2F)cc(F)c1-n1ncc(C(=O)c2cc3cc(Cl)c(NS(C)(=O)=O)cc3[nH]2)c1N"
assayed_system = "human Src enzyme (Homo sapiens)"
value_reported = 210

[[record]]
structure_smiles_string = "COc1cc2cc(C(=O)c3cnn(-c4ccc(Oc5ccccc5F)cc4C)c3N)[nH]c2cc1NS(=O)(=O)CC(=O)NC(C)C"
assayed_system = "human Src enzyme (Homo sapiens)"
value_reported = 25


A: Cc1cc(Oc2ccccc2F)cc(F)c1-n1ncc(C(=O)c2cc3cc(OC(F)F)c(NC4COC4)cc3[nH]2)c1N
B: Cc1cc(Oc2cccc(F)c2F)cc(F)c1-n1ncc(C(=O)c2cc3cc(NS(C)(=O)=O)c(F)cc3[nH]2)c1N
query: # returns the entry with the larger IC50; inputs A and B Identify your selection by its label.
result: A
(A: 63 nM, B: 27 nM)

I: Cc1cc(Oc2c(F)cccc2F)ncc1-n1ncc(C(=O)c2cc3cc(OCC(F)F)c(N4CCOCC4)cc3[nH]2)c1N
II: Cc1cc(Oc2ccccc2)cc(F)c1-n1ncc(C(=O)c2cc3cc(F)c(NS(C)(=O)=O)cc3[nH]2)c1N
III: Cc1cc(Oc2ccccc2Cl)ncc1-n1ncc(C(=O)c2cc3cc(Cl)c(NS(C)(=O)=O)cc3[nH]2)c1N
query: Put the entries in order of IC50, starting with the largest number. Sort the labels as requested; that list is your answer.
result: III, II, I

---

Assayed system: human Lck enzyme (Homo sapiens, UniProt P06239)
Construct: purchased Carna Biosciences, Inc. 08-170
Sequence (P06239 whole entry): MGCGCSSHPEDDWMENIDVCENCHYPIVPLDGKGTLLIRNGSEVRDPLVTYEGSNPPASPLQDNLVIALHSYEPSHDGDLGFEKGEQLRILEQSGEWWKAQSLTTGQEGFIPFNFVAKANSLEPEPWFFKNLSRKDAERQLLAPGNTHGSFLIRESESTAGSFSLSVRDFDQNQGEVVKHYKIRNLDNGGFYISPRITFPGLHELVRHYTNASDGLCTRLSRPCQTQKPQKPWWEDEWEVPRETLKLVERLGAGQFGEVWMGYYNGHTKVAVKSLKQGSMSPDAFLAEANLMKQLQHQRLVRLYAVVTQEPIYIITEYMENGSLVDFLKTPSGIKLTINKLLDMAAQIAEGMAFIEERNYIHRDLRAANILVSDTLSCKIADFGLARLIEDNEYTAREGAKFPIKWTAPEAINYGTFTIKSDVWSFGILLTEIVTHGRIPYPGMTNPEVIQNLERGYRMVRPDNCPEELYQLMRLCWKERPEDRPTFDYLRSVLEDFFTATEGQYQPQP
Assay details: Lck enzyme inhibitory activity (time-resolved fluorometry, biotinylated peptide phosphorylation)
Type: biochemical
Measurement setup: biotinylated peptide phosphorylation, read-out: LCK_IC50
pIC50: −log10 of the molar value.
Endpoint: pIC50

[[record]]
compound = "Cc1cc(Oc2ccccc2F)ccc1-n1ncc(C(=O)c2cc3cc(OC(F)F)c(NS(=O)(=O)C4CC4)cc3[nH]2)c1N [Example 4-24-001]"
assayed_system = "human Lck enzyme (Homo sapiens, UniProt P06239)"
endpoint = "pIC50"
value_reported = 7.44

[[record]]
compound = "Cc1cc2cc(C(=O)c3cnn(-c4ccc(Oc5ccccc5F)cc4C)c3N)[nH]c2cc1NS(=O)(=O)CC(=O)N1CCOCC1 [Example 4-10-007]"
assayed_system = "human Lck enzyme (Homo sapiens, UniProt P06239)"
endpoint = "pIC50"
value_reported = 8.07

[[record]]
compound = "Cc1cc(Oc2ccccc2F)ccc1-n1ncc(C(=O)c2cc3cc(OC(F)F)c(NS(=O)(=O)CCC(F)F)cc3[nH]2)c1N [Example 4-24-004]"
assayed_system = "human Lck enzyme (Homo sapiens, UniProt P06239)"
endpoint = "pIC50"
value_reported = 7.77

[[record]]
compound = "Cc1cc(Oc2ccccc2Cl)ncc1-n1ncc(C(=O)c2cc3cc(F)c(NS(C)(=O)=O)cc3[nH]2)c1N [Example 4-2-033]"
assayed_system = "human Lck enzyme (Homo sapiens, UniProt P06239)"
endpoint = "pIC50"
value_reported = 7.72

[[record]]
compound = "Cc1cc2cc(C(=O)c3cnn(-c4cnc(Oc5ccccc5F)cc4C)c3N)[nH]c2cc1N1CCCS1(=O)=O [Example 4-16-001]"
assayed_system = "human Lck enzyme (Homo sapiens, UniProt P06239)"
endpoint = "pIC50"
value_reported = 8.35

[[record]]
compound = "Cc1cc(Oc2ccccc2F)ncc1-n1ncc(C(=O)c2cc3cc(N(CCN4CCOCC4)S(C)(=O)=O)c(O)cc3[nH]2)c1N [Example 4-2-130]"
assayed_system = "human Lck enzyme (Homo sapiens, UniProt P06239)"
endpoint = "pIC50"
value_reported = 8.35


A: Cc1cc(Oc2c(F)cccc2F)ncc1-n1ncc(C(=O)c2cc3cc(OC(F)F)c(N4C(=O)C(C)(C)NC4=S)cc3[nH]2)c1N [Example 4-23-038]
B: Cc1cc2cc(C(=O)c3cnn(-c4cnc(Oc5c(F)cccc5F)cc4C)c3N)[nH]c2cc1N1C(=O)[C@@H]2CCCN2C1=O [Example 5-1-454]
C: Cc1cc(Oc2ccccn2)ccc1-n1ncc(C(=O)c2cc3cc(F)c(NS(=O)(=O)CCCF)cc3[nH]2)c1N [Example 4-2-017]
D: Cc1cc(Oc2ccccc2F)ccc1-n1ncc(C(=O)c2cc3cc(F)c(N4C(=O)CNC4=O)cc3[nH]2)c1N [Example 5-1-445]
E: COc1cc2cc(C(=O)c3cnn(-c4cnc(Oc5ccccc5F)cc4C)c3N)[nH]c2cc1NS(=O)(=O)N1CCOCC1 [Example 4-12-001]
query: Arrange the 5 compounds from largest to smallest pIC50. List the labels according to the requested ordering.
result: D, B, A, C, E

Every entry's value here was drawn from patent US10479780B2.
